# System: EGFR (T790M) (h)
# Type: biochemical, human
# Measurement conditions: 0.1 μM test compound, 10 μM ATP; remaining activity relative to DMSO control = 100%
Reported endpoint: Activity (control) % EGFR (T790M) (h) (%)
Please reply with the bare figure in % and do not write the unit itself.

COc1ccc(NC(=O)/C=C/CN(C)C)cc1Nc1ncc(Cl)c(Nc2ccccc2C(=O)C(=O)N(C)C)n1 [Example 80]: 42
C=C(CN1CCCCC1)C(=O)Nc1cc(Nc2ncc(Cl)c(Nc3ccccc3C(=O)C(=O)N(C)C)n2)ccc1N1CCOCC1 [Example 129]: 24

QUERY: Respond only with Activity (control) % EGFR (T790M) (h) recorded for C=CC(=O)Nc1cccc(Nc2ncc(Cl)c(Nc3ccccc3C(=O)C(=O)N(C)C)n2)c1 [Example 40]
RESULT: 79

QUERY: Respond only with Activity (control) % EGFR (T790M) (h) recorded for C=C(CN1CCCCC1)C(=O)Nc1ccc(OC)c(Nc2ncc(Cl)c(Nc3ccccc3C(=O)C(=O)N(C)C)n2)c1 [Example 73]
RESULT: 3

====

# Tested on: EGFR (h)
# Assay type: biochemical, human
Reported endpoint: Activity (control) % EGFR (h)
Please append the unit to your numeric answer.

Example compounds with recorded Activity (control) % EGFR (h):
COc1cc(Nc2ncc(Cl)c(Nc3ccccc3C(=O)C(=O)N(C)C)n2)ccc1N1CCC(N(C)C)CC1: 82%
C=CC(=O)Nc1cc(Nc2ncc(Cl)c(Nc3ccccc3C(=O)C(=O)N(C)C)n2)c(OC)cc1N1CCN(C)CC1: 110%
C=CC(=O)Nc1cccc(Nc2nc(Nc3ccc(N4CCN(C(C)=O)CC4)cc3OC)ncc2C(F)(F)F)c1 [CO-1686, reference compound]: 92%

Now for another entry.
QUERY: Respond only with Activity (control) % EGFR (h) recorded for COc1cc(N2CCC(N(C)C)CC2)ccc1Nc1ncc(Cl)c(Nc2ccccc2C(=O)C(N)=O)n1
RESULT: 65%

====

# Test system: A431 (EGFR WT) cells
# Test protocol: Cell proliferation assay (MTS cell viability)
# Assay type: cell-based
# Measurement conditions: Homo sapiens, A-431, 72 h, 3 days of exposure
Reported endpoint: IC50 (nM)
Please reply with the bare figure in nM and do not write the unit itself.

QUERY: Respond only with IC50 recorded for C=CC(=O)Nc1cc(Nc2ncc(Cl)c(Nc3ccccc3C(=O)C(=O)N(C)C)n2)c(OC)cc1N1CCN(C)CC1
RESULT: 50

====

# Test system: EGFR (h)
# Type: biochemical, human
# Measurement conditions: 0.1 μM test compound, 10 μM ATP; remaining activity relative to DMSO control = 100%
Binary label based on Activity (control) % EGFR (h) with cut-off 90%: below gives MET, not below gives NOT MET.

Look over these answered cases.
C=C(CN1CCCCC1)C(=O)Nc1ccc(OC)c(Nc2ncc(Cl)c(Nc3ccccc3C(=O)C(=O)N(C)C)n2)c1 [Example 73]: MET
C=CC(=O)Nc1cc(Nc2ncc(C)c(Nc3ccccc3C(=O)C(=O)N(C)C)n2)ccc1OC [Example 101]: NOT MET
C=CC(=O)Nc1ccc(OC)c(Nc2ncc(Cl)c(Nc3ccccc3C(=O)C(=O)N3CCN(C)CC3)n2)c1 [Example 89]: MET
C=CC(=O)Nc1cc(Nc2ncc(Cl)c(Nc3ccccc3C(=O)C(=O)N(C)C)n2)ccc1OC1CCOC1 (stereo not drawn) [Example 124]: NOT MET

QUERY: Does COc1cc(Nc2ncc(Cl)c(Nc3ccccc3C(=O)C(=O)N(C)C)n2)ccc1N1CCN(C(C)=O)CC1 [Example 94] have Activity (control) % EGFR (h) strictly under 90%?
RESULT: NOT MET

====

# Test system: ALK (h)
# Assay type: biochemical, human
# Measurement conditions: 0.1 μM test compound, 10 μM ATP; remaining activity relative to DMSO control = 100%
Binary label based on Activity (control) % ALK (h) with cut-off 9%: below gives rule met, not below gives rule not met.

C=C(CN1CCCCC1)C(=O)Nc1cc(Nc2ncc(Cl)c(Nc3ccccc3C(=O)C(=O)N(C)C)n2)ccc1N1CCOCC1: rule met
COc1ccc(NC(=O)/C=C/CN2CCOCC2)cc1Nc1ncc(Cl)c(Nc2ccccc2C(=O)C(=O)N(C)C)n1: rule met
CCN(CC)C(=O)C(=O)c1ccccc1Nc1nc(Nc2ccc(N3CCN(C)CC3)c(OC)c2)ncc1Cl: rule not met
C=CC(=O)Nc1cc(Nc2ncc(Cl)c(Nc3ccccc3C(=O)C(=O)N(C)CCN(C)C)n2)ccc1OC: rule met

QUERY: Does C=C(CN(C)CCN(C)C)C(=O)Nc1cccc(Nc2ncc(Cl)c(Nc3ccccc3C(=O)C(=O)N(C)C)n2)c1 have Activity (control) % ALK (h) strictly under 9%?
RESULT: rule not met

QUERY: Does C=CC(=O)Nc1cc(Nc2ncc(Cl)c(Nc3ccccc3C(=O)C(=O)N(C)C)n2)ccc1OC have Activity (control) % ALK (h) strictly under 9%?
RESULT: rule not met

====

# Tested on: EGFR (T790M, L858R) (h)
# Assay type: biochemical, human
# Measurement conditions: 0.1 μM test compound, 10 μM ATP; remaining activity relative to DMSO control = 100%
Reported endpoint: Activity (control) % EGFR (T790M, L858R) (h) (%)
Please reply with the bare figure in % and do not write the unit itself.

COc1cc(Nc2ncc(Cl)c(Nc3ccccc3C(=O)C(=O)N(C)C)n2)ccc1N1CCOCC1: 14
C=C(CN(C)CCN(C)C)C(=O)Nc1ccc(OC)c(Nc2ncc(Cl)c(Nc3ccccc3C(=O)C(=O)N(C)C)n2)c1: 2
COc1ccc(NC(=O)/C=C/CN2CCCCC2)cc1Nc1ncc(Cl)c(Nc2ccccc2C(=O)C(=O)N(C)C)n1: 9
C=CC(=O)Nc1cc(Nc2ncc(Cl)c(Nc3ccccc3C(=O)C(=O)N(CC)CC)n2)ccc1OC: 30
C=C(CN(C)C)C(=O)Nc1ccc(OC)c(Nc2ncc(Cl)c(Nc3ccccc3C(=O)C(=O)N(C)C)n2)c1: 3
CN(C)C(=O)C(=O)c1ccccc1Nc1nc(Nc2ccc(F)c(NC(=O)CCN3CCOCC3)c2)ncc1Cl: 31

Now for another entry.
QUERY: Respond only with Activity (control) % EGFR (T790M, L858R) (h) recorded for COc1ccc(NC(=O)/C=C/CN(C)C)cc1Nc1ncc(Cl)c(Nc2ccccc2C(=O)C(=O)N(C)C)n1
RESULT: 7

====

# Tested on: A549 (EGFR WT) NSCLC cells
# Test protocol: Cell proliferation assay (MTS cell viability)
# Type: cell-based
# Measurement conditions: Homo sapiens, 72 h, 3 days of exposure
Reported endpoint: IC50

QUERY: Print A549 (EGFR WT) NSCLC cells IC50 for C=CC(=O)Nc1cc(Nc2ncc(Cl)c(Nc3ccccc3C(=O)C(=O)N(C)C)n2)c(OC)cc1N1CCN(C)CC1 [Example 74] .
RESULT: 620 nM

====

# Tested on: ALK (h)
# Assay type: biochemical, human
# Measurement conditions: 0.1 μM test compound, 10 μM ATP; remaining activity relative to DMSO control = 100%
Reported endpoint: Activity (control) % ALK (h) (%)
Please reply with the bare figure in % and do not write the unit itself.

Example compounds with recorded Activity (control) % ALK (h):
C=CC(=O)Nc1ccc(OC)c(Nc2ncc(Cl)c(Nc3ccccc3C(=O)C(=O)N(C)C)n2)c1: 13
C=CC(=O)Nc1ccc(N2CCN(C)CC2)c(Nc2ncc(Cl)c(Nc3ccccc3C(=O)C(=O)N(C)C)n2)c1: 80

QUERY: Respond only with Activity (control) % ALK (h) recorded for COc1ccc(NC(=O)/C=C/CN(C)C)cc1Nc1ncc(Cl)c(Nc2ccccc2C(=O)C(=O)N(C)C)n1
RESULT: 10

QUERY: Respond only with Activity (control) % ALK (h) recorded for C=C(CN1CCCC1)C(=O)Nc1ccc(OC)c(Nc2ncc(Cl)c(Nc3ccccc3C(=O)C(=O)N(C)C)n2)c1
RESULT: 23

====

# Tested on: EGFR (L858R) (h)
# Type: biochemical, human
Lab note: anything with Activity (control) % EGFR (L858R) (h) at or over 80% counts as y; the rest go in n.

Look over these answered cases.
C=CC(=O)Nc1cccc(Nc2nc(Nc3ccc(N4CCN(C(C)=O)CC4)cc3OC)ncc2C(F)(F)F)c1 [CO-1686, reference compound]: y
C=CC(=O)Nc1ccc(OC)c(Nc2ncc(Cl)c(Nc3ccccc3C(=O)C(=O)N(C)C)n2)c1 [Example 67]: y
COc1cc(Nc2ncc(Cl)c(Nc3ccccc3C(=O)C(=O)N(C)C)n2)ccc1N1CCN(C)CC1 [Example 61]: n

QUERY: Determine whether measured Activity (control) % EGFR (L858R) (h) meets or exceeds 80% for COc1cc(N2CCC(N(C)C)CC2)ccc1Nc1ncc(Cl)c(Nc2ccccc2C(=O)C(N)=O)n1 [Example 4]
RESULT: n

QUERY: Determine whether measured Activity (control) % EGFR (L858R) (h) meets or exceeds 80% for COc1cc(Nc2ncc(Cl)c(Nc3ccccc3C(=O)C(=O)N(C)C)n2)ccc1N1CCC(N(C)C)CC1 [Example 118]
RESULT: n
